quantity: melting point

compound="CON=C(C)CC1CC(O)=C(c2c(C)cc(Br)cc2C)C1=O (stereo not shown)" quantity="melting point" recordedmeasurement="164 to 166 °C"
compound="CON=C(C)CC1CC(O)=C(c2c(C)cc(OCC(F)(F)F)cc2C)C1=O (stereo not shown)" quantity="melting point" recordedmeasurement="165 to 172 °C"
compound="CON=C(C)CC1CC(OC)=C(c2c(C)cc(OCC(F)(F)F)cc2C)C1=O (stereo not shown)" quantity="melting point" recordedmeasurement="117 to 119 °C"
compound="CON=C(C)CC1CC(O)=C(c2c(OC)cc(C)cc2OC)C1=O (stereo not shown)" quantity="melting point" recordedmeasurement="171 to 175 °C"
compound="CON=C(CC1CC(O)=C(c2c(C)cc(C)cc2C)C1=O)C(C)(C)C (stereo not shown)" quantity="melting point" recordedmeasurement="163 to 164 °C"
compound="CC(CC1CC(O)=C(c2c(C)cc(C)cc2C)C1=O)=NOc1ccccc1 (stereo not shown)" quantity="melting point" recordedmeasurement="149 to 151 °C"
compound="CCc1cc(C)cc(C)c1C1=C(O)CC(CC(C)=NOC)C1=O (stereo not shown)" quantity="melting point" recordedmeasurement="122 to 125 °C"
compound="CCCC(CC1CC(O)=C(c2c(C)cc(C)cc2C)C1=O)=NOC (stereo not shown)" quantity="melting point" recordedmeasurement="134 to 137 °C"
compound="CCC(CC1CC(O)=C(c2c(C)cc(C)cc2C)C1=O)=NOC (stereo not shown)" quantity="melting point" recordedmeasurement="147 to 149 °C"
compound="CCCON=C(C)CC1CC(O)=C(c2c(C)cc(C)cc2C)C1=O (stereo not shown)" quantity="melting point" recordedmeasurement="123 to 126 °C"
